tested on: J774 macrophages; assay: Alamar Blue macrophage J774 viability assay; type: cell-based; conditions: Mus musculus, 72 hours culture with compound, Alamar Blue read-out
pIC50: −log10 of the molar value.
parameter: pIC50

{"columns": ["molecule", "assayed.target", "parameter", "value.relation.sign", "recorded.measurement"],
 "data": [
  ["O=S(=O)(Nc1cccc(C(O)C(F)(F)F)c1)c1ccc(-c2ccc(Cl)cc2Cl)cc1 (centres unmarked) [ABD766]", "J774 macrophages", "pIC50", "=", 6.15],
  ["O=S(=O)(Nc1cccc(C(CO)N2CCOCC2)c1)c1ccc(-c2ccc(F)cc2F)cc1 (centres unmarked) [ABD792]", "J774 macrophages", "pIC50", "<", 4.52],
  ["CC(C)(O)c1cccc(NS(=O)(=O)c2ccc(-c3ccc(Cl)cc3Cl)cc2)c1 [ABD707]", "J774 macrophages", "pIC50", "=", 7.05],
  ["CNCC(O)c1cccc(NS(=O)(=O)c2ccc(-c3ccc(F)cc3F)cc2)c1 (centres unmarked) [ABD783]", "J774 macrophages", "pIC50", "=", 5.93],
  ["CC(N)(CO)c1cccc(NS(=O)(=O)c2ccc(-c3ccc(F)cc3F)cc2)c1 (centres unmarked) [ABD862]", "J774 macrophages", "pIC50", "=", 5.61],
  ["CN(C)CC(O)c1cccc(NS(=O)(=O)c2ccc(-c3ccc(F)cc3F)cc2)c1 (centres unmarked) [ABD784]", "J774 macrophages", "pIC50", "=", 5.84],
  ["O=S(=O)(Nc1cccc(C(O)CN2CCOCC2)c1)c1ccc(-c2ccc(F)cc2F)cc1 (centres unmarked) [ABD785]", "J774 macrophages", "pIC50", "=", 5.33],
  ["CN(C)Cc1cccc(NS(=O)(=O)c2ccc(-c3ccc(Cl)cc3Cl)cc2)c1 [ABD724]", "J774 macrophages", "pIC50", "=", 6.52],
  ["NS(=O)(=O)c1cccc(NS(=O)(=O)c2ccc(-c3ccc(Cl)cc3Cl)cc2)c1 [ABD751]", "J774 macrophages", "pIC50", "=", 6.06],
  ["CN[C@H](CO)c1cccc(NS(=O)(=O)c2ccc(-c3ccc(F)cc3F)cc2)c1 [ABD811]", "J774 macrophages", "pIC50", "=", 6.46],
  ["N[C@@H](CO)c1cccc(NS(=O)(=O)c2ccc(-c3ccc(F)cc3F)cc2)c1 [ABD854]", "J774 macrophages", "pIC50", "=", 5.87],
  ["O=S(=O)(Nc1cccc(C2(O)CC2)c1)c1ccc(-c2ccc(Cl)cc2Cl)cc1 [ABD709]", "J774 macrophages", "pIC50", "=", 6.42],
  ["CC(O)c1cccc(NS(=O)(=O)c2ccc(-c3ccc(Cl)cc3Cl)cc2)c1 (centres unmarked) [ABD708]", "J774 macrophages", "pIC50", "=", 6.74],
  ["NCc1cccc(NS(=O)(=O)c2ccc(-c3ccc(F)cc3F)cc2)c1 [ABD788]", "J774 macrophages", "pIC50", "=", 6.00],
  ["O=S(=O)(Nc1cccc(CO)c1)c1ccc(-c2ccc(F)cc2F)cc1 [ABD456, reference compound]", "J774 macrophages", "pIC50", "=", 6.60],
  ["CN[C@@H](CO)c1cccc(NS(=O)(=O)c2ccc(-c3ccc(F)cc3F)cc2)c1 [ABD810]", "J774 macrophages", "pIC50", "=", 5.99],
  ["CN(C)C(CO)c1cccc(NS(=O)(=O)c2ccc(-c3ccc(F)cc3F)cc2)c1 (centres unmarked) [ABD791]", "J774 macrophages", "pIC50", "=", 6.24],
  ["O=S(=O)(Nc1ccc(CO)cc1)c1ccc(-c2ccc(F)cc2F)cc1 [ABD466, reference compound]", "J774 macrophages", "pIC50", "=", 5.52],
  ["CNC(CO)c1cccc(NS(=O)(=O)c2ccc(-c3ccc(F)cc3F)cc2)c1 (centres unmarked) [ABD789]", "J774 macrophages", "pIC50", "=", 6.85],
  ["N[C@H](CO)c1cccc(NS(=O)(=O)c2ccc(-c3ccc(F)cc3F)cc2)c1 [ABD855]", "J774 macrophages", "pIC50", "=", 6.07]
]}

###

# solubility at 24 h annotations
test: Thermodynamic aqueous solubility in fasted state simulated intestinal fluid (FaSSIF); type: physicochemical; conditions: fasted state simulated intestinal fluid (FaSSIF), pH 6.5, thermodynamic from solid, 25° C., 24 hours equilibration, HPLC

{"columns": ["molecule", "unit.of.measurement", "solubility at 24 h"],
 "data": [
  ["CN(C)C(=O)c1cccc(NS(=O)(=O)c2ccc(-c3ccc(Cl)cc3Cl)cc2)c1 [ABD730]", "µg/mL", 20],
  ["O=C(O)c1cccc(NS(=O)(=O)c2ccc(-c3ccc(Cl)cc3Cl)cc2)c1 [ABD612, reference compound]", "µg/mL", 130],
  ["CC(C)(O)c1cccc(NS(=O)(=O)c2ccc(-c3ccc(Cl)cc3Cl)cc2)c1 [ABD707]", "µg/mL", 140],
  ["CNC(CO)c1cccc(NS(=O)(=O)c2ccc(-c3ccc(F)cc3F)cc2)c1 (centres unmarked) [ABD789]", "µg/mL", 520],
  ["NS(=O)(=O)c1cccc(NS(=O)(=O)c2ccc(-c3ccc(Cl)cc3Cl)cc2)c1 [ABD751]", "µg/mL", 40],
  ["CN(C)Cc1cccc(NS(=O)(=O)c2ccc(-c3ccc(Cl)cc3Cl)cc2)c1 [ABD724]", "µg/mL", 90],
  ["CC(O)c1cccc(NS(=O)(=O)c2ccc(-c3ccc(Cl)cc3Cl)cc2)c1 (centres unmarked) [ABD708]", "µg/mL", 100],
  ["N[C@H](CO)c1cccc(NS(=O)(=O)c2ccc(-c3ccc(F)cc3F)cc2)c1 [ABD855]", "µg/mL", 4100],
  ["NCc1cccc(NS(=O)(=O)c2ccc(-c3ccc(F)cc3F)cc2)c1 [ABD788]", "µg/mL", 50],
  ["CNCC(O)c1cccc(NS(=O)(=O)c2ccc(-c3ccc(F)cc3F)cc2)c1 (centres unmarked) [ABD783]", "µg/mL", 370],
  ["O=S(=O)(Nc1cccc(CO)c1)c1ccc(-c2ccc(Cl)cc2Cl)cc1 [ABD455, reference compound]", "µg/mL", 40],
  ["CC(=O)c1cccc(NS(=O)(=O)c2ccc(-c3ccc(Cl)cc3Cl)cc2)c1 [ABD746, reference compound]", "µg/mL", 8],
  ["O=S(=O)(Nc1cccc(C2(O)CC2)c1)c1ccc(-c2ccc(Cl)cc2Cl)cc1 [ABD709]", "µg/mL", 70],
  ["CN(C)C(CO)c1cccc(NS(=O)(=O)c2ccc(-c3ccc(F)cc3F)cc2)c1 (centres unmarked) [ABD791]", "µg/mL", 3000],
  ["O=S(=O)(Nc1cccc(C(O)C(F)(F)F)c1)c1ccc(-c2ccc(Cl)cc2Cl)cc1 (centres unmarked) [ABD766]", "µg/mL", 20],
  ["O=S(=O)(Nc1cccc(C(O)CN2CCOCC2)c1)c1ccc(-c2ccc(F)cc2F)cc1 (centres unmarked) [ABD785]", "µg/mL", 210],
  ["O=S(=O)(Nc1cccc(C(CO)N2CCOCC2)c1)c1ccc(-c2ccc(F)cc2F)cc1 (centres unmarked) [ABD792]", "µg/mL", 4400]
]}

###

system: J774 macrophages; assay: Alamar Blue macrophage J774 viability assay; format: cell-based; details: 72 hours culture with compound, Alamar Blue read-out
pIC50: −log10 of the molar value.
parameter: pIC50

{"columns": ["molecule", "recorded.measurement"],
 "data": [
  ["O=S(=O)(Nc1cccc(CO)c1)c1ccc(-c2ccc(Cl)cc2F)cc1 [ABD575, reference compound]", 6.40]
]}

###

assay: In vivo pharmacokinetics in rat, oral and intravenous; parameters: species or system Sprague-Dawley rats; details: male, Sprague-Dawley, plasma, iv, 2.5 mg/kg, i.v., 2.5 mg/kg, read-out: T½ (converted)
parameter: half-life (min)

{"columns": ["compound", "parameter", "unit.of.measurement", "recorded.measurement"],
 "data": [
  ["O=S(=O)(Nc1cccc(CO)c1)c1ccc(-c2ccc(Cl)cc2Cl)cc1 [ABD455, reference compound]", "half-life", "min", 31.8]
]}

###

assay: Human liver microsomal stability assay; format: in vitro ADME; settings: pooled human liver microsomes 0.5 mg/mL, test compound 3 μM, 45 minute incubation, NADPH
Listed here: items and their measured T1/2.
parameter: T1/2 (min)

{"columns": ["molecule", "parameter", "recorded.measurement"],
 "data": [
  ["O=S(=O)(Nc1cccc(CCO)c1)c1ccc(-c2ccc(Cl)cc2Cl)cc1 [ABD625, reference compound]", "T1/2", 13],
  ["O=S(=O)(Nc1cccc(CCO)c1)c1ccc(-c2ccc(Br)cc2)cc1 [ABD630, reference compound]", "T1/2", 43]
]}
